Recorded values, source the supplement of paper PMC10567573.

B1: KCNAB2 (parent)
chain: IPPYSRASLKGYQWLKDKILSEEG

# Variants of: B1
# assay-notes: protein stability index of a GFP-peptide fusion (GPS, HEK-293T) (PSI 1-6); higher = more stable;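 further: lentivirally expressed fusions sorted by FACS into six bins by GFP to DsRed ratio, PSI derived from sequencing read proportions per bin multiplied by bin number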
# conditions: c terminus: a fixed tail appended
protein stability index values, listed per item
Respond using a number only.

Please review the entries below; each comes with its answer.
biopolymer-sequence: IPPYSRASLKGYQWRKDKILSEEG [L15R]
experimental-value: 2.37
//
biopolymer-sequence: IPPYSRASLKGYQWLKDKMLSEEG [I19M]
experimental-value: 3.53
//
biopolymer-sequence: IPPYERASLKGYQWLKDKILSEEG [S5E]
experimental-value: 3.09
//
biopolymer-sequence: IPPYSRASLKGYQWSKDKILSEEG [L15S]
experimental-value: 3.53
//
biopolymer-sequence: IPPYSRASLYGYQWLKDKILSEEG [K10Y]
experimental-value: 2.84
//
biopolymer-sequence: IPPYSRAYLKGYQWLKDKILSEEG [S8Y]
experimental-value: 1.9
//
biopolymer-sequence: IPPYSRASLRGYQWLKDKILSEEG [K10R]
experimental-value: 1.68
//
biopolymer-sequence: IPPYSRASKKGYQWLKDKILSEEG [L9K]
experimental-value: 2.53

Short answer for IPPMSRASLKGYQWLKDKILSEEG [Y4M] : protein stability index was 1.83

Short answer for IPPYSRASLKGYQWLHDKILSEEG [K16H] : protein stability index was 1.53

Short answer for IEPYSRASLKGYQWLKDKILSEEG [P2E] : protein stability index was 2.87

Short answer for IPPYSRASLKGYQWFKDKILSEEG [L15F] : protein stability index was 2.59
